- Tested on: Vero-E6 cells
- assay.method.text: Cytotoxicity (MTT / CellTiter-Glo cell viability) in Vero-E6 cells
- Assay type: cell-based, African green monkey
- run.parameters: at MNCC, 48 h exposure, normalized to untreated control; mean 2x
Structures can show the parent of a compound that is named as a salt.
# strict inequality: % viability Vero E6 < 80% yields TRUE, everything else yields FALSE

compound: C=C[C@H]1C[N@@]2CC[C@H]1C[C@H]2[C@H](O)c1ccnc2ccc(OC)cc12 [Quinine Sulfate (QN), Quinine Sulfate]
class: TRUE
//
compound: COc1ccc2nc3cc(Cl)ccc3c(Nc3cc(CN4CCCC4)c(O)c(CN4CCCC4)c3)c2n1
class: FALSE
//
compound: C[C@H]1[C@H](OC(=O)CCC(=O)O)O[C@@H]2O[C@@]3(C)CC[C@H]4[C@H](C)CC[C@@H]1[C@@]24OO3 [Artesunic acid (AS), Artesunic acid]
class: TRUE

Decide: % viability Vero E6 of `C[C@H]1[C@@H](OCc2ccc(C(=O)O)cc2)O[C@@H]2O[C@@]3(C)CC[C@H]4[C@H](C)CC[C@@H]1[C@@]24OO3` strictly below 80%? FALSE

Would you kindly verify if % viability Vero E6 of CCN(CCO)CCCC(C)Nc1ccnc2cc(Cl)ccc12 (stereo not drawn) [Hydroxychloroquine sulfate (HCQ), Hydroxychloroquine sulfate] is strictly less than 80%? TRUE
